assayed-system: Peptide deformylase (Escherichia coli)
Sequence (Q9JN24 whole entry): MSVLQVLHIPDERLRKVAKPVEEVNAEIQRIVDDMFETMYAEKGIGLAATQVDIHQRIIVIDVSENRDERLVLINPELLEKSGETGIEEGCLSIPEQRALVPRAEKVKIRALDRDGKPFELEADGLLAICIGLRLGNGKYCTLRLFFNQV
Label label 1 when IC50 is strictly below 3 nM; at or above that, label label 0.

Some solved cases for reference:
CC(C)(C)[C@H](NC(=O)[C@H](CC1CCCC1)CN(O)C=O)C(=O)c1ccc(N2CCN(CCN3CCOCC3)CC2)c(F)c1 : label 0
CC(C)(C)[C@H](NC(=O)[C@H](CC1CCCC1)CN(O)C=O)C(=O)c1ccc(S(C)(=O)=O)cc1 : label 0
CC(C)(C)[C@H](NC(=O)[C@H](CC1CCCC1)CN(O)C=O)C(=O)c1cc(F)c(F)cc1N1CCN(CCO)CC1 : label 1
CC(C)(C)[C@H](NC(=O)[C@H](CC1CCCC1)CN(O)C=O)C(=O)c1ccc(N2CCOCC2)c(F)c1 : label 1
CC(C)(C)[C@H](NC(=O)[C@H](CC1CCCC1)CN(O)C=O)C(=O)c1ccc(N2CCC[C@H]2CO)c(F)c1 : label 1
CC(C)(C)[C@H](NC(=O)[C@H](CC1CCCC1)CN(O)C=O)C(=O)c1cc(F)c(F)cc1N1CCOCC1 : label 1

Let's switch to this compound now.
IN: Does the reported IC50 of CCCC[C@H](CN(O)C=O)C(=O)N[C@H](C(=O)c1ccco1)C(C)(C)C stay below 3 nM?
OUT: label 0
